Target: T1, GST-Syntrophin 1 alpha PDZ domain 1 (Homo sapiens (Human)), Q13424
T1 chain: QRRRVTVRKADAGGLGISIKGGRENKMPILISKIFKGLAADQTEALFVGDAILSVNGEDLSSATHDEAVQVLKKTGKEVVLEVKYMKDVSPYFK
Experiment: G' assay; also: key of the grades not given here

>  <BINDER>
AGAVRTPLSQVNKVWDQSSV (modifications not checked) [CITRON protein]

>  <MEASURE UNIT>
A450 class

>  <Classification>
1

$$$$
>  <BINDER>
VPGALDYAAFSSALYGESDL (modifications not checked) [a-actinin 2]

>  <MEASURE UNIT>
A450 class

>  <Classification>
3

$$$$
>  <BINDER>
EDPKDRPSAAHIVEALETDV (modifications not checked) [PDZ-binding kinase (PBK)]

>  <MEASURE UNIT>
A450 class

>  <Classification>
1

$$$$
>  <BINDER>
DAKLKSDGTIAAITEKETHF (modifications not checked) [GABA transporter 3]

>  <MEASURE UNIT>
A450 class

>  <Classification>
1

$$$$
>  <BINDER>
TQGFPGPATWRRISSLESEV (modifications not checked) [NMDA Glutamate Receptor 2C (cysteine-free)]

>  <MEASURE UNIT>
A450 class

>  <Classification>
4

$$$$
>  <BINDER>
ARHRVTSYTSSSVNVSSNL (modifications not checked) [IL-8RA]

>  <MEASURE UNIT>
A450 class

>  <Classification>
1

$$$$
